The measurements presented in this section are drawn from patent EP0791603A2.

Molecular target: rat somatostatin receptor subtype 2 (SSTR2) (Rattus norvegicus, UniProt P30680)
Construct: expressed in transfected cells; host or cells: Saccharomyces cerevisiae LY364
Sequence (P30680 whole entry): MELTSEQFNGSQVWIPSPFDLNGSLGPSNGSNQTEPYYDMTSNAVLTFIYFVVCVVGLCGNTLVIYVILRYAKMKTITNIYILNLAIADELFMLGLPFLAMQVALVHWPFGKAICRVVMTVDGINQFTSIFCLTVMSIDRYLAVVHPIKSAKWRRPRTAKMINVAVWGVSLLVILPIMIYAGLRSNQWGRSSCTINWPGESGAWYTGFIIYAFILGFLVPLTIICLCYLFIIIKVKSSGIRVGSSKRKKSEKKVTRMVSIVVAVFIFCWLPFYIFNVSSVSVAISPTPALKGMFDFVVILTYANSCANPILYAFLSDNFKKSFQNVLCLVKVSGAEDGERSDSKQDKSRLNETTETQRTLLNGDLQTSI
Assay: Yeast assay, somatostatin antagonist activity (zone of no growth in presence of S-14)
Assay type: cell-based
Settings: rating on a scale of 1-5 from zone of no growth; 5µL of 1 mg/mL S-14 added to each plate; S. Cerevisiae LY364
Positions of bridges follow the written chain, without caps; N, C: chain ends. Non-standard residues stand in square brackets, D forms with d. Residues, ends and D or L forms follow the SMILES beside them. Phe(4-NO2) = N[C@@H](Cc1ccc([N+](=O)[O-])cc1)C(=O)O; 2Nal = N[C@@H](Cc1ccc2ccccc2c1)C(=O)O
Reported Yeast Assay Antagonist values are given for each entry in this list.

{"compound": "CC(C)[C@@H]1NC(=O)[C@H](CCCCN)NC(=O)[C@@H](Cc2c[nH]c3ccccc23)NC(=O)[C@H](Cc2ccc(O)cc2)NC(=O)[C@H](NC(=O)[C@@H](N)Cc2ccc([N+](=O)[O-])cc2)CSSC[C@@H](C(=O)N[C@@H](Cc2ccc3ccccc3c2)C(N)=O)NC1=O (H-[Phe(4-NO2)][dC]Y[dW]KVC[2Nal]-NH2; disulfide 2-7 (inferred))", "Yeast Assay Antagonist": 2}
{"compound": "CC(C)[C@@H]1NC(=O)[C@H](CCCCN)NC(=O)[C@@H](Cc2c[nH]c3ccccc23)NC(=O)[C@H](Cc2ccc(O)cc2)NC(=O)[C@H](NC(=O)[C@@H](N)Cc2ccc3ccccc3c2)CSSC[C@@H](C(=O)N[C@@H](Cc2ccc(O)cc2)C(N)=O)NC1=O (H-[2Nal][dC]Y[dW]KVCY-NH2; disulfide 2-7; N-terminus assumed)", "Yeast Assay Antagonist": 3}

###

Molecular target: rat somatostatin receptor subtype 2 (SSTR2) (Rattus norvegicus, UniProt P30680)
Construct: expressed in transfected cells; host or cells: Saccharomyces cerevisiae LY364
Test: Yeast assay, somatostatin agonist activity (growth zone of modified yeast cells on histidine-free agar)
Format: cell-based
Details: rating on a scale of 1-5 from zone of growing cells; S. Cerevisiae LY364
Positions of bridges follow the written chain, without caps; N, C: chain ends. Non-standard residues stand in square brackets, D forms with d. Residues, ends and D or L forms follow the SMILES beside them. Phe(4-NO2) = N[C@@H](Cc1ccc([N+](=O)[O-])cc1)C(=O)O; 2Nal = N[C@@H](Cc1ccc2ccccc2c1)C(=O)O; Abu = CC[C@H](N)C(=O)O

{"molecule": "C[C@@H](O)[C@@H]1NC(=O)[C@H](CCCCN)NC(=O)[C@@H](Cc2c[nH]c3ccccc23)NC(=O)[C@H](Cc2ccc(O)cc2)NC(=O)[C@H](NC(=O)[C@@H](N)Cc2ccc3ccccc3c2)CSSC[C@@H](C(=O)N[C@@H](Cc2ccc(O)cc2)C(N)=O)NC1=O (H-[2Nal][dC]Y[dW]KTCY-NH2; disulfide 2-7 (inferred); N-terminus assumed)", "Yeast Assay Agonist": "-"}
{"molecule": "CC[C@@H]1NC(=O)[C@H](CCCCN)NC(=O)[C@@H](Cc2c[nH]c3ccccc23)NC(=O)[C@H](Cc2ccc(O)cc2)NC(=O)[C@H](NC(=O)[C@@H](N)Cc2ccc([N+](=O)[O-])cc2)CSSC[C@@H](C(=O)N[C@@H](Cc2ccc(O)cc2)C(N)=O)NC1=O (H-[Phe(4-NO2)][dC]Y[dW]K[Abu]CY-NH2; disulfide 2-7 (inferred))", "Yeast Assay Agonist": "-"}
{"molecule": "CC(C)[C@@H]1NC(=O)[C@H](CCCCN)NC(=O)[C@@H](Cc2c[nH]c3ccccc23)NC(=O)[C@H](Cc2ccc(O)cc2)NC(=O)[C@H](NC(=O)[C@@H](N)Cc2ccc([N+](=O)[O-])cc2)CSSC[C@@H](C(=O)N[C@@H](Cc2ccc3ccccc3c2)C(N)=O)NC1=O (H-[Phe(4-NO2)][dC]Y[dW]KVC[2Nal]-NH2; disulfide 2-7 (inferred))", "Yeast Assay Agonist": "-"}

###

In this section we review reported Yeast Assay Antagonist values for a set of compounds.
Molecular target: rat somatostatin receptor subtype 2 (SSTR2) (Rattus norvegicus, UniProt P30680)
Construct: expressed in transfected cells; host or cells: Saccharomyces cerevisiae LY364
Assay: Yeast assay, somatostatin antagonist activity (zone of no growth in presence of S-14)
Type: cell-based
Settings: rating on a scale of 1-5 from zone of no growth; 5µL of 1 mg/mL S-14 added to each plate; S. Cerevisiae LY364

{"smiles entry": "CC(=O)N[C@@H](Cc1ccc(I)cc1)C(=O)N[C@@H]1CSSC[C@@H](C(=O)N[C@H](Cc2ccc(O)cc2)C(N)=O)NC(=O)[C@H]([C@@H](C)O)NC(=O)[C@H](CCCCN)NC(=O)[C@@H](Cc2c[nH]c3ccccc23)NC(=O)[C@H](Cc2ccc(O)cc2)NC1=O", "Yeast Assay Antagonist": 4}
{"smiles entry": "C[C@@H](O)[C@@H]1NC(=O)[C@H](CCCCN)NC(=O)[C@@H](Cc2c[nH]c3ccccc23)NC(=O)[C@H](Cc2ccc(O)cc2)NC(=O)[C@H](NC(=O)[C@@H](N)Cc2ccc([N+](=O)[O-])cc2)CSSC[C@@H](C(=O)N[C@H](Cc2ccc(O)cc2)C(N)=O)NC1=O", "Yeast Assay Antagonist": 4}
{"smiles entry": "CC(=O)N[C@@H](Cc1ccc([N+](=O)[O-])cc1)C(=O)N[C@@H]1CSSC[C@@H](C(=O)N[C@H](Cc2ccc(O)cc2)C(N)=O)NC(=O)[C@H]([C@@H](C)O)NC(=O)[C@H](CCCCN)NC(=O)[C@@H](Cc2c[nH]c3ccccc23)NC(=O)[C@H](Cc2ccc(O)cc2)NC1=O", "Yeast Assay Antagonist": 4}

###

Molecular target: rat somatostatin receptor subtype 2 (SSTR2) (Rattus norvegicus, UniProt P30680)
Construct: expressed in transfected cells; host or cells: Saccharomyces cerevisiae LY364
Assay: Yeast assay, somatostatin antagonist activity (zone of no growth in presence of S-14)
Assay type: cell-based
Set-up: key: 1 is minimum antagonist activity; 5 is maximum antagonist activity; -: When no activity is observed, the result is indicated by a dash
Conditions: rating on a scale of 1-5 from zone of no growth; 5µL of 1 mg/mL S-14 added to each plate; S. Cerevisiae LY364
Description: To evaluate the somatostatin antagonist activity of a test compound, the above procedure is followed except on day 3, 5µL of 1 mg/mL of somatostatin, S-14, is added to each plate, before applying the test compound. […] This zone of no growth is measured and the test compound is given an antagonist rating on a scale of 1-5 wherein 1 is minimum antagonist activity and 5 is maximum antagonist activity. […]
Positions of bridges follow the written chain, without caps; N, C: chain ends. Non-standard residues stand in square brackets, D forms with d. Residues, ends and D or L forms follow the SMILES beside them. NMePhe(4-NO2) = CN[C@@H](Cc1ccc([N+](=O)[O-])cc1)C(=O)O; Phe(4-NO2) = N[C@@H](Cc1ccc([N+](=O)[O-])cc1)C(=O)O; 2Nal = N[C@@H](Cc1ccc2ccccc2c1)C(=O)O; d2Nal = N[C@H](Cc1ccc2ccccc2c1)C(=O)O; Abu = CC[C@H](N)C(=O)O
observed property: Yeast Assay Antagonist

{"molecule": "C[C@@H](O)[C@@H]1NC(=O)[C@H](CCCCN)NC(=O)[C@@H](Cc2c[nH]c3ccccc23)NC(=O)[C@H](Cc2ccc(O)cc2)NC(=O)[C@H](NC(=O)[C@@H](N)Cc2ccc3ccccc3c2)CSSC[C@@H](C(=O)N[C@@H](Cc2ccc(O)cc2)C(N)=O)NC1=O (H-[2Nal][dC]Y[dW]KTCY-NH2; disulfide 2-7 (inferred); N-terminus assumed)", "result value": 1}
{"molecule": "CC(=O)N[C@@H](Cc1ccc2ccccc2c1)C(=O)N[C@@H]1CSSC[C@@H](C(=O)N[C@@H](Cc2ccc(O)cc2)C(N)=O)NC(=O)[C@H]([C@@H](C)O)NC(=O)[C@H](CCCCN)NC(=O)[C@@H](Cc2c[nH]c3ccccc23)NC(=O)[C@H](Cc2ccc(O)cc2)NC1=O (Ac-[2Nal][dC]Y[dW]KTCY-NH2; disulfide 2-7 (inferred))", "result value": 1}
{"molecule": "CC(C)[C@@H]1NC(=O)[C@H](CCCCN)NC(=O)[C@@H](Cc2c[nH]c3ccccc23)NC(=O)[C@H](Cc2ccc(O)cc2)NC(=O)[C@H](NC(=O)[C@H](N)Cc2ccc3ccccc3c2)CSSC[C@@H](C(=O)N[C@@H](Cc2ccc(O)cc2)C(N)=O)NC1=O (H-[d2Nal][dC]Y[dW]KVCY-NH2; disulfide 2-7)", "result value": 2}
{"molecule": "CN[C@@H](Cc1ccc([N+](=O)[O-])cc1)C(=O)N[C@@H]1CSSC[C@@H](C(=O)N[C@@H](Cc2ccc(O)cc2)C(N)=O)NC(=O)[C@H](C(C)C)NC(=O)[C@H](CCCCN)NC(=O)[C@@H](Cc2c[nH]c3ccccc23)NC(=O)[C@H](Cc2ccc(O)cc2)NC1=O (H-[NMePhe(4-NO2)][dC]Y[dW]KVCY-NH2; disulfide 2-7 (inferred))", "result value": 5}
{"molecule": "CC[C@@H]1NC(=O)[C@H](CCCCN)NC(=O)[C@@H](Cc2c[nH]c3ccccc23)NC(=O)[C@H](Cc2ccc(O)cc2)NC(=O)[C@H](NC(=O)[C@@H](N)Cc2ccc([N+](=O)[O-])cc2)CSSC[C@@H](C(=O)N[C@@H](Cc2ccc(O)cc2)C(N)=O)NC1=O (H-[Phe(4-NO2)][dC]Y[dW]K[Abu]CY-NH2; disulfide 2-7 (inferred))", "result value": 3}
{"molecule": "CC(C)[C@@H]1NC(=O)[C@H](CCCCN)NC(=O)[C@@H](Cc2c[nH]c3ccccc23)NC(=O)[C@H](Cc2ccc(O)cc2)NC(=O)[C@H](NC(=O)[C@@H](N)Cc2ccc([N+](=O)[O-])cc2)CSSC[C@@H](C(=O)N[C@@H](Cc2ccc(O)cc2)C(N)=O)NC1=O (H-[Phe(4-NO2)][dC]Y[dW]KVCY-NH2; disulfide 2-7 (inferred))", "result value": 5}
